assay: recombinant UMI read abundance after kanamycin selection (control-corrected) (log10(CPM+1)); higher = more efficient recombination; extreme values may be limits of the assay; sequences stand for … in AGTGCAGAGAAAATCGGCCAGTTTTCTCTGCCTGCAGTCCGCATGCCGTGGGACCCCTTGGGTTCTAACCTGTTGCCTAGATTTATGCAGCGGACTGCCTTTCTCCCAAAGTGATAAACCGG…AGGTTGGTTTCACT; site = the 11-nt donor
Metric: recombinant UMI read abundance (log10)
# respond with the number and nothing more

See these solved cases before continuing.
CATTGGACATGGACCGGTTTTCCCGGTAATCCGTATTTGAC (site CATTGGACTGT) :: 1.96
GGCTAGACATGGACCGGTTTTCCCGGTAATCCGTATTTGCC (site GGGTAGACTGG) :: 0
GTTGCTGCATGGACCGGTTTTCCCGGTAATCCGTATTTGAG (site GTTGCTGCTCT) :: 0.388
CGATCATCATGGACCGGTTTTCCCGGTAATCCGTATTTGCT (site CGAGTATCTAG) :: 0
AACCGTCCATGGACCGGTTTTCCCGGTAATCCGTATTTGAT (site CACCGTCCTAT) :: 0.00991
TAATAAGCATGGACCGGTTTTCCCGGTAATCCGTATTTGGG (site TAATAAGCTCC) :: 0.013

Value of measured recombinant UMI read abundance (log10) for the entry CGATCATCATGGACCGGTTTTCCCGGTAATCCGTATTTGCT (site TGACCATCTAG) : 1.21

* * *

assay: recombinant UMI read abundance after kanamycin selection (control-corrected) (log10(CPM+1)); higher = more efficient recombination; extreme values may be limits of the assay; sequences stand for … in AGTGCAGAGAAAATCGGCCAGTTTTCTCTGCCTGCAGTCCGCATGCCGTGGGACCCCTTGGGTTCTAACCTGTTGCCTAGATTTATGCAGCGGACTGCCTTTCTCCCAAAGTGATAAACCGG…AGGTTGGTTTCACT; site = the 11-nt donor
Metric: recombinant UMI read abundance (log10)
# respond with the number and nothing more

See these solved cases before continuing.
CTTCTCTCATGGACCGGTTTTCCCGGTAATCCGTATTTGTA (site CTTTTCTCTTA) :: 0
CCATCGACATGGACCGGTTTTCCCGGTAATCCGTATTTGTT (site CCATCGACTAA) :: 0.266

Consider now this further sequence.
Value of measured recombinant UMI read abundance (log10) for the entry CCCAGATCATGGACCGGTTTTCCCGGTAATCCGTATTTGGA (site CCCAGATCTTC) : 0.0263

* * *

Recorded recombinant barcode read abundance (log10) for the following sequences
assay: recombinant barcode read abundance after kanamycin selection (control-corrected) (log10(CPM+1)); higher = more efficient recombination; sequences stand for … in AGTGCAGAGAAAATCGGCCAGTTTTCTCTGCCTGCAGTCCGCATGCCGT…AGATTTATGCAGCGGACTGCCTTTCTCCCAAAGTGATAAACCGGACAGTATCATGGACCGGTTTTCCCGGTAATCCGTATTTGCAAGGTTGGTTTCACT; site = the 11-nt target
# respond with the number and nothing more

CTACACTCTTGGGTTCTAACCTGTTGCCT (site CCACACTCTAG) :: 0.409
TATGCTTCTTGGGTTCTAACCTGTTGCTT (site TATGCTTCTAA) :: 0.0973
CGTCCACCTTGGGTTCTAACCTGTTGCCT (site GGTCCACCTAG) :: 0.1

Value of measured recombinant barcode read abundance (log10) for the entry GAGATTCCTTGGGTTCTAACCTGTTGCCT (site GAGATTCCTAG) : 0.399
